# GI50 annotations
Test system: OVCAR-8
Experiment: NCI tumour cell line growth inhibition, 48 h
The source made the active and inactive calls. Rule as the data show it: active = GI50 up to about 1.1 µM and inactive = higher.
measured_quantity: GI50

molecule: CN(C(=O)C12C3C4(C(=O)O)C1(C(=O)N(C)C(C)(C)C)C1C2(C(=O)O)C3(C(=O)N(C)C(C)(C)C)C14C(=O)N(C)C(C)(C)C)C(C)(C)C (stereo not given)
measured_quantity: GI50
assay_value: > 100 µM (inactive)
--
molecule: Cc1ccc(OCCn2cc(Nc3ccccc3)c(=O)[nH]c2=O)cc1
measured_quantity: GI50
assay_value: > 100 µM (inactive)
--
molecule: CSc1nc2c(c(O)c(C)c(=O)n2C2OCC(OC(C)=O)C(OC(C)=O)C2OC(C)=O)c(=O)n1C (stereo not given)
measured_quantity: GI50
assay_value: > 100 µM (inactive)
--
molecule: O=C1CCC2(O)c3ccccc3C2Cc2ccccc21 (stereo not given)
measured_quantity: GI50
assay_value: > 100 µM (inactive)
--
molecule: COc1cc2c(cc1O)CC13CCC(=O)N1CCc1cc(OC)c(O)c-2c13 (stereo not given)
measured_quantity: GI50
assay_value: > 68.1 µM (inactive)
--
molecule: CCOC(=O)COC1=Nc2cc(OC)c(OC)c3nc(Cl)cc(c23)C1=O
measured_quantity: GI50
assay_value: 2.43 µM (inactive)
--
molecule: COc1ccc(N2C(=O)C3c4[nH]c5c(C)cccc5c4C4CCC(c5ccccc5)CC4C3C2=O)cc1 (stereo not given)
measured_quantity: GI50
assay_value: 15.6 µM (inactive)
--
molecule: c1ccc2c(c1)ccc1nc(-c3ccc4c(c3)OCO4)c3c(c12)CCCC3
measured_quantity: GI50
assay_value: 20.2 µM (inactive)
--
molecule: CC1(C)[C@H](O)CC[C@]2(C)C3=CC[C@@]4(C)[C@@H]5C[C@](C)(CO)CC[C@]5(C)CC[C@]4(C)C3=CC[C@@H]12
measured_quantity: GI50
assay_value: 2.07 µM (inactive)
--
molecule: Nc1ccc(CCN2CCN(c3cccc(C(F)(F)F)c3)CC2)cc1
measured_quantity: GI50
assay_value: > 100 µM (inactive)
--
molecule: O=C(c1cccs1)N(C(=S)OCc1ccccn1)c1ccccc1
measured_quantity: GI50
assay_value: 56.5 µM (inactive)
--
molecule: CCn1c2ccccc2c2ccc(C3C4C(=O)N(c5cccc6ccccc56)C(=O)C4ON3C(C(N)=O)c3ccccc3)cc21 (stereo not given)
measured_quantity: GI50
assay_value: > 25 µM (inactive)
--
molecule: CC1=NCC[N+]1(CCc1ccccc1)Cc1ccccc1 (stereo not given)
measured_quantity: GI50
assay_value: 37.3 µM (inactive)
--
molecule: CC1(C)CC(=O)C2=C(C1)OC1(CC2c2ccc(Cl)cc2)CC(c2ccc(Cl)cc2)C2=C(CC(C)(C)CC2=O)O1 (stereo not given)
measured_quantity: GI50
assay_value: 24.7 µM (inactive)
--
molecule: Cc1[nH]n(-c2nc(O)c(C)c(=O)[nH]2)c(=O)c1CCO
measured_quantity: GI50
assay_value: > 100 µM (inactive)
--
molecule: N/N=C(/C(=O)Nc1cccc(Cl)c1)C(C(=O)c1ccc(O)cc1O)C1OC(=O)c2ccccc21 (stereo not given)
measured_quantity: GI50
assay_value: > 100 µM (inactive)
--
molecule: CN(C)CCOc1ccc([N+](=O)[O-])c2cccnc12
measured_quantity: GI50
assay_value: > 100 µM (inactive)
--
molecule: CC(C)(C)OC(=O)N1C[C@H](CC(=O)OCc2ccccc2)C[C@H]1C(=O)OCC(Cl)(Cl)Cl
measured_quantity: GI50
assay_value: 6.07 µM (inactive)
--
molecule: COc1ccc2c(=O)c([Se]c3coc4cc(OC)ccc4c3=O)coc2c1
measured_quantity: GI50
assay_value: 41.7 µM (inactive)
--
molecule: C[C@]12CC=CC(=O)[C@@]1(C)CCC(=O)C2
measured_quantity: GI50
assay_value: > 100 µM (inactive)
